Test: APP 5'UTR translational reporter suppression – APP 5'UTR luciferase, SH-SY5Y cells, primary screen (AID 1285)
Settings: SH-SY5Y APP 5'UTR-luciferase reporter, luminescence; at 2 µM; hits give high values
Hit rate of the full screen: of about 190,000 compounds, about 1,600 (0.84%) were called active. This excerpt belongs to a sample that is enriched for actives.
metricName: inhibition (%)
Express it in %; write the number only.

Below are worked cases with known answers.
{"molecule": "Cc1ccnc(NS(=O)(=O)c2ccc(NC(=O)c3ccc(S(=O)(=O)N4CCOCC4)cc3)cc2)n1", "inhibition (%)": 5.8}
{"molecule": "CCn1c(CNC(=O)c2ccc(OC)c(OC)c2)nnc1SCC(=O)Nc1ccccc1", "inhibition (%)": 45.9}
{"molecule": "Cc1ccc(OCC(=O)N/N=C\\c2ccco2)c(C)c1", "inhibition (%)": -0.4}
{"molecule": "CC1=NN(C(=O)CCc2ccccc2O)C(O)(C(F)(F)F)C1 (stereo not drawn)", "inhibition (%)": 8.6}
{"molecule": "CCO/C=C1\\C(=O)N(c2ccc(OCC)cc2)C(=O)c2ccccc21", "inhibition (%)": -6.3}
{"molecule": "Cc1nn(C)c(C)c1S(=O)(=O)N1CCC(CO)(Cc2ccc(Cl)cc2)CC1", "inhibition (%)": 26.8}

Asked: Reported inhibition, molecule `CNc1ccc(NC(C)=O)cc1[N+](=O)[O-]` : ____
Given back: -17.6

Asked: Reported inhibition, molecule O=S1(=O)CCC(NC(=S)SCc2ccccc2Br)C1 (stereo not drawn) : ____
Given back: 0.3

Asked: Reported inhibition, molecule `COCCNC(=O)c1ccc(-n2c(SCc3cccnc3)nc3ccccc3c2=O)cc1` : ____
Given back: -4.3

Asked: Reported inhibition, molecule `Cc1ccc(/C=N/NC(=O)COc2ccccc2-c2ccccc2)cc1` : ____
Given back: 97

Asked: Reported inhibition, molecule `COc1cccc(/C(C)=N/Nc2ncc(Cl)cc2Cl)c1` : ____
Given back: -24.9

Asked: Reported inhibition, molecule C=CCOC(=O)C1=C(C)NC(SCC(=O)OCC)=C(C#N)C1c1ccc(C)cc1 (stereo not drawn) : ____
Given back: -6.5

Asked: Reported inhibition, molecule `Cc1ccc(NC(=O)c2ccn(C(=O)Nc3ccccc3)n2)c(C)c1` : ____
Given back: -34.7

Asked: Reported inhibition, molecule OCCC1CN(Cc2cccc(O)c2)CCN1CCc1ccccc1 (stereo not drawn) : ____
Given back: 1

Asked: Reported inhibition, molecule `Cc1ccc(C(C)C)cc1OCCN1CCCC1` : ____
Given back: -3.6

Asked: Reported inhibition, molecule `CCn1c(CNC(=O)c2ccco2)nnc1SCC(=O)Nc1cccc(F)c1` : ____
Given back: -10

Asked: Reported inhibition, molecule CSc1nc(C)cc(SC(C(C)=O)C(=O)Nc2ccccc2)n1 (stereo not drawn) : ____
Given back: -17.5

Asked: Reported inhibition, molecule `O=C(/C=C/c1ccc(N2CCOCC2)cc1)c1ccccc1` : ____
Given back: -140

Asked: Reported inhibition, molecule `O=C(COc1ccc(Cl)cc1[N+](=O)[O-])N1CCCCC1` : ____
Given back: -4

Asked: Reported inhibition, molecule `Cc1nc(-c2ccc(Cl)cc2)sc1C(=O)CBr` : ____
Given back: 5.2

Asked: Reported inhibition, molecule `CCOc1cc(CNn2c(C)nnc2SCC(=O)NC(C)(C)C)ccc1OCC(=O)NC(C)(C)C` : ____
Given back: 21.4

Asked: Reported inhibition, molecule `COc1cc(/C=C2\SC(=S)N(Nc3ncc(C(F)(F)F)cc3Cl)C2=O)cc(OC)c1OC` : ____
Given back: 0.7

Asked: Reported inhibition, molecule CCN(C(=O)CSc1nc2ccccc2n1CC)C1CCS(=O)(=O)C1 (stereo not drawn) : ____
Given back: -8
